- Target or test system: Syk kinase (Homo sapiens)
- Construct: purchased
- Test name: Syk kinase inhibition, Caliper LabChip off-chip mobility-shift kinase assay
- Assay type: biochemical
- Test context: Caliper LabChip assay; read-out: Syk Enzyme IC50
Endpoint name: pIC50
Keep it numeric: pIC50 is minus log10 of the concentration in mol/L.

Example cases with answers are listed next.
CCn1ccc2cc(-c3cnc(N)nc3)nc(NS(C)(=O)=O)c2c1=O [compound 744]; 6.69
CCn1ccc2cc(Nc3cnccn3)nc(NC3(CO)CC3)c2c1=O [compound 797]; 6.97
CC(C)(C)Nc1nc(Nc2cc(C3CCCCC3)ncn2)cc2ccn(CCO)c(=O)c12 [compound 625]; 6.34
CC(C)(C)Nc1nc(Nc2cnccn2)cc2ccn(C[C@H](O)CO)c(=O)c12 [compound 669]; 8.22
CCn1ccc2cc(Nc3cc(C)ccn3)nc(NC(C)(CO)CO)c2c1=O [compound 808]; 7.09
[2H]C([2H])([2H])n1ccc2cc(Nc3cc(C)c(F)cn3)nc(NC(C)(C)CO)c2c1=O [compound 1049]; 7.05

Query block: Write down the reported pIC50 (system: Syk kinase (Homo sapiens)) of CCn1ccc2cc(-c3cnc(N)nc3)nc(NC3(C)CCC3)c2c1=O [compound 906]
Result block: 7.54

Query block: Fill in: pIC50 on Syk kinase (Homo sapiens), entry CC(C)(Nc1nc(Nc2cnccn2)cc2ccn(CCO)c(=O)c12)C1CC1 [compound 670]
Result block: 7.05

Query block: Return reported pIC50 for target or system Syk kinase (Homo sapiens), item CC(C)(O)Cn1ccc2cc(Nc3cc(C(C)(C)O)ncn3)nc(NC3(C)CCC3)c2c1=O [compound 733] .
Result block: 7.04

Query block: Give the observed pIC50 of CC(C)(O)Cc1ccnc(Nc2cc3ccn(CCO)c(=O)c3c(NC(C)(C)C)n2)c1 [compound 880] for Syk kinase (Homo sapiens).
Result block: 7.13

Query block: Give pIC50; test system Syk kinase (Homo sapiens); compound CC[C@@H](CO)Nc1nc(Nc2cc(C)ccn2)cc2ccn(CC)c(=O)c12 [compound 597]
Result block: 7.09

Query block: Recall the reported pIC50 of CC(C)(O)Cn1ccc2cc(Nc3cc(C(C)(C)O)ncn3)nc(NC(C)(C)C)c2c1=O [compound 731] when tested on Syk kinase (Homo sapiens).
Result block: 6.96

Query block: Under Syk kinase (Homo sapiens), report pIC50 for CC(C)(C)Nc1nc(Nc2cc(-c3ccc4cn[nH]c4c3)ccn2)cc2ccn(CCO)c(=O)c12 [compound 850]
Result block: 6.25

Query block: Look up and report pIC50, with Syk kinase (Homo sapiens) as system, for CC(C)(C)Nc1nc(Nc2cc(C(=O)N3CCCC(CO)C3)ccn2)cc2ccn(CCO)c(=O)c12 (stereo not drawn) [compound 688]
Result block: 6.06

Query block: Return reported pIC50 for target or system Syk kinase (Homo sapiens), item O=c1c2c(NCC(F)(F)F)nc(Nc3cnccn3)cc2ccn1CCO [compound 825] .
Result block: 7.66

Query block: Fetch value of pIC50 on Syk kinase (Homo sapiens) for [2H]C([2H])([2H])n1ccc2cc(Nc3cc(C)ccn3)nc(NC(C)(C)CO)c2c1=O [compound 1047] .
Result block: 7.11

Query block: State, for Syk kinase (Homo sapiens), measured pIC50 of the compound listed here: CC(C)Nc1nc(-c2cnc(N)nc2)cc2ccn(CCO)c(=O)c12 [compound 892]
Result block: 6.87

Query block: System Syk kinase (Homo sapiens). Read-out pIC50. Item CC1(Nc2nc(Nc3cc(C(C)(C)O)ccn3)cc3ccn(CC(N)=O)c(=O)c23)CCC1 [compound 722] . Report value.
Result block: 6.81

Query block: // output pIC50; input CCn1ccc2cc(Nc3nccc(O)n3)nc(N[C@@H]3CC[C@@H](O)C3)c2c1=O [compound 960] ; system Syk kinase (Homo sapiens)
Result block: 7.21

###

- Target or test system: Syk kinase (Homo sapiens)
- Construct: purchased
- Test name: Syk kinase inhibition, Caliper LabChip off-chip mobility-shift kinase assay
- Type: biochemical
- Test context: read-out: Syk Enzyme IC50
Rule for this label: Condition met means IC50 is less than 90 nM; Condition not met means IC50 is at least 90 nM.

O=c1[nH]ccc2cc(Nc3ccccn3)nc(NC3CCCC3)c12; Condition not met
COc1cncc(-c2cc3cc[nH]c(=O)c3c(Nc3ccc(C4CCN(C(=O)C5(N)CC5)CC4)c(C)c3)n2)n1; Condition not met
COCC1(C(=O)N2CCC(c3ccc(Nc4nc(-c5cncc(OC)n5)cc5cc[nH]c(=O)c45)cc3C)CC2)CC1; Condition not met
CC(C)Nc1nc(-c2cnc(N)nc2)cc2ccn(CCO)c(=O)c12; Condition not met
Cc1ccnc(Nc2cc3cc[nH]c(=O)c3c(NC(C)(C)C)n2)c1; Condition met
Cn1ccc2cc(Nc3cnccn3)nc(N[C@H]3CCOC3)c2c1=O; Condition met

Query block: Quick check: does `COCCCNc1nc(Nc2cc(C)ccn2)cc2cc[nH]c(=O)c12` have IC50 under 90 nM?
Result block: Condition met

###

- Target or test system: Syk kinase (Homo sapiens, UniProt P43405)
- Construct: purchased
- Test name: Syk kinase inhibition, Caliper LabChip off-chip mobility-shift kinase assay
- Type: biochemical
- Test context: read-out: Syk Enzyme IC50
pIC50: −log10 of the molar value.
We use 7 as the dividing line for pIC50: on or above the line is T, below is F.

Use these answered entries as a reference point.
COCCN1CCN(c2n[nH]c3cc(Nc4nc(-c5cncc(OC)n5)cc5cc[nH]c(=O)c45)ccc23)CC1; T
Cc1cc(Nc2nc(-c3ccnc(N)n3)cc3cc[nH]c(=O)c23)ccc1C1CCN(CCC#N)CC1; F
CCn1ccc2cc(Nc3cc(C)ccn3)nc(N[C@H]3CCOC3)c2c1=O; T

Query block: Could you tell me if the measured pIC50 of `Cc1ccnc(Nc2cc3ccn(CCO)c(=O)c3c(NC(C)(C)CO)n2)c1` reaches 7 or more?
Result block: T

Query block: Is pIC50 for `CNC(C)(C)C(=O)N1CCC(c2ccc(Nc3nc(-c4cncc(OC)n4)cc4cc[nH]c(=O)c34)cc2C)CC1` at or above 7?
Result block: T

Query block: Check this compound for pIC50 at or above 7: `CCOCCOc1cccc(Nc2nc(Nc3cnccn3)cc3ccn(C)c(=O)c23)c1`
Result block: F

Query block: Could you tell me if the measured pIC50 of `COc1cncc(-c2cc3cc[nH]c(=O)c3c(Nc3ccc(C4CCN(C(=O)N(C)C)CC4)c(C)c3)n2)n1` reaches 7 or more?
Result block: F

Query block: I'd appreciate it if you could say whether `CCN1CCN(CCc2ccc(Nc3nc(-c4ccc(C)nc4)cc4c(F)c[nH]c(=O)c34)cc2)CC1` has pIC50 at least equal to 7.
Result block: F

###

# maps each entry to its log10 IC50
- Target or test system: Syk kinase (Homo sapiens, UniProt P43405)
- Construct: purchased
- Test name: Syk kinase inhibition, Caliper LabChip off-chip mobility-shift kinase assay
- Assay type: biochemical
- Test context: read-out: Syk Enzyme IC50
Note: values are log10 of IC50 expressed in µM.

O=c1[nH]ccc2cc(-c3cncnc3)nc(Nc3ccc(C4CCNCC4)c(F)c3)c12; -1.55
Cc1ccnc(Nc2cc3cc[nH]c(=O)c3c(NCc3ccccc3)n2)c1; 0.75
Cc1cc(-c2cc3cc[nH]c(=O)c3c(Nc3ccc(C4CCN(C5CC5)CC4)c(C)c3)n2)ccn1; -0.41
Cc1nc(N)ncc1-c1cc2cc[nH]c(=O)c2c(Nc2ccc([C@H]3CC[C@H](N4CCOCC4)CC3)cc2)n1; -0.18

Query block: // fetch log10 IC50; item: `CC(C)Nc1nc(Nc2ccc(Cl)cn2)cc2cc[nH]c(=O)c12` ; system: Syk kinase (Homo sapiens, UniProt P43405)
Result block: -0.21

###

- Target or test system: Syk kinase (Homo sapiens, UniProt P43405)
- Construct: purchased
- Test name: Syk kinase inhibition, Caliper LabChip off-chip mobility-shift kinase assay
- Type: biochemical
- Test context: Caliper LabChip assay; read-out: Syk Enzyme IC50
Endpoint name: IC50 (nM)
Give the number; nM is assumed, so skip it.

Answered examples (3):
NC(=O)Cn1ccc2cc(Nc3cnccn3)nc(NC3CCCC3)c2c1=O; 18
Cn1cc(-c2ccnc(Nc3cc4ccn(CCO)c(=O)c4c(NC(C)(C)C)n3)c2)cn1; 103
CS(=O)(=O)CCn1ccc2cc(Nc3cnccn3)nc(N[C@H]3CC[C@H](O)CC3)c2c1=O; 22

Query block: Supply measured IC50 of `[2H][C@]1(O)CC[C@H](Nc2nc(Nc3cnccn3)cc3ccn(CC)c(=O)c23)CC1` in your reply.
Result block: 29

Query block: Indicate the recorded IC50 value for this compound: CC(C)(C)Nc1nc(Nc2cc(C(O)CN)ccn2)cc2ccn(CCO)c(=O)c12 (stereo not drawn)
Result block: 453

Query block: Tell us which IC50 value is on record for `Nc1ncc(-c2cc3ccn(C4COC4)c(=O)c3c(NC3CCC3)n2)cn1`
Result block: 25

Query block: Report IC50 for COCC(O)Cn1ccc2cc(Nc3cnccn3)nc(NC(C)(C)C)c2c1=O (stereo not drawn)
Result block: 12

Query block: Output measured IC50 for this item: `CC(C)(C)Nc1nc(-c2cnc(N)nc2)cc2ccn(CCO)c(=O)c12`
Result block: 17

Query block: Look up IC50 of `COCCn1ccc2cc(Nc3cnccn3)nc(NC(C)(C)C)c2c1=O` and report it.
Result block: 96

Query block: Please report IC50 for the following compound: `C#CCn1ccc2cc(Nc3cnccn3)nc(NC(C)(C)C)c2c1=O`
Result block: 51

Query block: For the compound CC(C)(C)Nc1nc(-c2cnc(N)nc2)cc2ccn(C[C@H](O)CO)c(=O)c12 [compound 935] , give its measured IC50 value.
Result block: 8

Query block: Could you please provide reported IC50 for `CC(C)(C)Nc1nc(Nc2cnccn2)cc2ccn(Cc3c[nH]nn3)c(=O)c12` ? Thanks!
Result block: 18

Query block: Please give measured IC50 of the following entry: `CC(C)(C)Nc1nc(Nc2cc(-c3ccc4[nH]ncc4c3)ccn2)cc2ccn(CCO)c(=O)c12`
Result block: 222

Query block: Look up and report measured IC50 for this entry: `CC(C)(C)Nc1nc(Nc2cnccn2)cc2ccn(CCS(C)(=O)=O)c(=O)c12`
Result block: 9

Query block: Kindly indicate its recorded IC50. Item: `Cc1ccnc(Nc2cc3ccn(CCN4CCOCC4)c(=O)c3c(N[C@@H](C)CO)n2)c1`
Result block: 53

Query block: Could you please provide reported IC50 for `COCC(COC)n1ccc2cc(Nc3cnccn3)nc(NC(C)(C)C)c2c1=O` ? Thanks!
Result block: 12

Query block: # return recorded IC50 for entry `C[C@@H](CO)Nc1nc(Nc2cnccn2)cc2ccn(CCF)c(=O)c12`
Result block: 74

Query block: Provide IC50 value for the following compound: `CCn1ccc2cc(Nc3nccc(O)n3)nc(N[C@H]3CCC[C@H]3O)c2c1=O`
Result block: 15

Query block: Let me know recorded IC50 for `CCC(C)(C)Nc1nc(-c2cnc(N)nc2)cc2cc[nH]c(=O)c12` , thanks.
Result block: 43

Query block: For the compound CC(C)(C)Nc1nc(-c2cnc(N)nc2)cc2ccn(CC3CCCO3)c(=O)c12 (stereo not drawn) , give its reported IC50.
Result block: 35

Query block: Answer with reported IC50 of `CC(C)(C)Nc1nc(Nc2cc(C(C)(C)O)ccn2)cc2ccn(CC(N)=O)c(=O)c12`
Result block: 108
